cytotoxicity at 10 µM overview
- assay.remarks: Toxicity liver stage against HepG2, at 10uM
- Format: cell-based
- Parameters: test concentration 10 uM, cell line HepG2-A16-CD81EGFP
- particulars: human, HepG2-A16-CD81EGFP cells; read-out: INHIBITION
reported.metric: cytotoxicity at 10 µM (%)

                                    compound  result_units  readout_value
 0     O=C(NCCSc1cnn[nH]1)c1c[nH]nc1C1CCCCC1             %          -5.03
 1  CCC(CC)(CC(=O)OC)NC(=O)Nc1nnc(-c2ccccn2)s1             %          -8.68
 2  Cc1cnn(CC(C)NCc2cc(C#N)ccc2F)c1 (configuration not stated)             %          0.224
 3        OCCNc1nccc(-c2c[nH]nc2-c2ccncc2)n1             %          -9.52
 4  O=C1CC(c2ncc(-c3ccc4c(c3)OCCO4)[nH]2)CN1C1CCCC1 (configuration not stated)             %           10.8
 5  COc1c(CNC2CCCOc3ccccc32)c(C(C)C)nn1C (configuration not stated)             %          -3.48
 6  CCn1ccc(C(=O)N2CCCN(Cc3ccccc3F)CC2)cc1=O             %           9.47
 7  Cc1ncsc1-c1nnc(C2CCN(Cc3cccc(Cl)c3)CC2)o1             %          -8.19
 8  Cc1cc(CCC(=O)O)nc(C2CCCN2c2ccnc(C)n2)n1 (configuration not stated)             %          -8.12
 9               CCc1nc(CN(CC(N)=O)C(C)C)cs1             %          -8.62
10  O=S(=O)(N1CCCC1)N1CCCCC1CCc1ccccc1 (configuration not stated)             %          -5.65
11          COCCN1CCn2cc(CNC(=O)C3CCC3)nc2C1             %           3.68
12               Cc1nc[nH]c1-c1nccn1CCCN(C)C             %           5.05
13  CNS(=O)(=O)Cc1ccc(CNC(=O)c2cccc(C)n2)cc1             %          -3.79
14        O=C(Cc1ccc2c(c1)CCCC2)NCCNc1cnccn1             %         -0.882
15  NC(=O)N1CCCC(C(=O)NCCOc2ccc3c(c2)OCO3)C1 (configuration not stated)             %           -102
16  COc1cc(CNC(C)Cn2cccn2)cc(OC)c1OC (configuration not stated)             %          -4.23
17   Cc1nc(CN2CCOCC3(CCN(c4ncccn4)CC3)C2)cs1             %           14.9
18  CC(C)C1CN(c2cccc(C#N)n2)CCCN1Cc1ccc(F)cc1 (configuration not stated)             %             10
19  CCc1nc(N2CCCC(CCCOC)(C(=O)O)C2)ncc1C (configuration not stated)             %           3.43
20      Cc1cc(CN(C)Cc2csc(-c3cccs3)n2)n[nH]1             %          -4.14
21  Cc1cnn(CC2CCCN2CC(=O)Nc2cc(C)on2)c1 (configuration not stated)             %          -26.7
